# target_under_test: LH release from rat pituitary cells (Rattus norvegicus)
# Sequence (P30969 whole entry): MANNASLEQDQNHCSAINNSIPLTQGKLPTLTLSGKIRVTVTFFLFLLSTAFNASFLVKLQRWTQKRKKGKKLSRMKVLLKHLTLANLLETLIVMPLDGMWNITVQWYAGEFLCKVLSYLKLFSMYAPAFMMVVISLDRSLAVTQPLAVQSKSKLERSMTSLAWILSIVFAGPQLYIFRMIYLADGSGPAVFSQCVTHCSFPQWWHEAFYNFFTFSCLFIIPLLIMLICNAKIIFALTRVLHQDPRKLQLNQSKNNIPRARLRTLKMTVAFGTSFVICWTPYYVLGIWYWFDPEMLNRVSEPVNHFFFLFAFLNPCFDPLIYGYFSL
# measurement_notes: in vitro inhibition of LH release from rat pituitary cells (pA2)
# Assay type: cell-based
# details: pA2 = negative logarithm of antagonist concentration required to shift the response curve of the agonist leuprolide to two-fold higher concentration
Starred links: 1 amine or outer side, 2 acyl side, 3 side chain; linkers in the order of their positions; H or OH if unused. Non-standard residues stand in square brackets, D forms with d. Residues, ends and D or L forms follow the SMILES beside them. *: point of attachment. dPhe(4-Cl) = N[C@H](Cc1ccc(Cl)cc1)C(=O)O; d2Nal = N[C@H](Cc1ccc2ccccc2c1)C(=O)O; NMeY = CN[C@@H](Cc1ccc(O)cc1)C(=O)O; Ethylenediamine = C(CN[*:2])N[*:1]; d3Pal = N[C@H](Cc1cccnc1)C(=O)O; NH(3-picolyl) = c1cncc(CN*)c1; Nicotinoyl = O=C(c1cccnc1)*; NH(CH2)4NH2 = NCCCCN*; NHCH2CH2NHMe = CNCCN*; X11 = CC(C)NCCCCCN*; X3 = O=C1CCCN1CCCN*; X4 = CC(C)NCCN*
recorded_metric: LHRH antagonist potency (pA2)
Give the figure only, with no unit attached.

Here is how some compounds turned out for LHRH antagonist potency (pA2).
INSERT INTO results (compound, target_under_test, recorded_metric, reported) VALUES
  ('CC(=O)N[C@H](Cc1ccc2ccccc2c1)C(=O)N[C@H](Cc1ccc(Cl)cc1)C(=O)N[C@H](Cc1cccnc1)C(=O)N[C@@H](CO)C(=O)N(C)[C@@H](Cc1ccc(O)cc1)C(=O)N[C@H](CCCCNC(=O)c1cccnc1)C(=O)N[C@@H](CC(C)C)C(=O)NCc1cccnc1 [Example 24] (Ac-[d2Nal][dPhe(4-Cl)][d3Pal]S[NMeY][dK](Nicotinoyl)L-{NH(3-picolyl)})', 'LH release from rat pituitary cells (Rattus norvegicus)', 'LHRH antagonist potency (pA2)', 8.30),
  ('CC(=O)N[C@H](Cc1ccc2ccccc2c1)C(=O)N[C@H](Cc1ccc(Cl)cc1)C(=O)N[C@H](Cc1cccnc1)C(=O)N[C@@H](CO)C(=O)N(C)[C@@H](Cc1ccc(O)cc1)C(=O)N[C@H](CCCCNC(=O)c1cccnc1)C(=O)N[C@@H](CC(C)C)C(=O)NCCCCCNC(C)C [Example 12] (Ac-[d2Nal][dPhe(4-Cl)][d3Pal]S[NMeY][dK](Nicotinoyl)L-X11)', 'LH release from rat pituitary cells (Rattus norvegicus)', 'LHRH antagonist potency (pA2)', 10.45),
  ('CC(=O)N[C@H](Cc1ccc2ccccc2c1)C(=O)N[C@H](Cc1ccc(Cl)cc1)C(=O)N[C@H](Cc1cccnc1)C(=O)N[C@@H](CO)C(=O)N(C)[C@@H](Cc1ccc(O)cc1)C(=O)N[C@H](CCCCNC(=O)c1cccnc1)C(=O)N[C@@H](CC(C)C)C(=O)NCCCCN [Example 6] (Ac-[d2Nal][dPhe(4-Cl)][d3Pal]S[NMeY][dK](Nicotinoyl)L-{NH(CH2)4NH2})', 'LH release from rat pituitary cells (Rattus norvegicus)', 'LHRH antagonist potency (pA2)', 9.90),
  ('CC(=O)N[C@H](Cc1ccc2ccccc2c1)C(=O)N[C@H](Cc1ccc(Cl)cc1)C(=O)N[C@H](Cc1cccnc1)C(=O)N[C@@H](CO)C(=O)N(C)[C@@H](Cc1ccc(O)cc1)C(=O)N[C@H](CCCCNC(=O)c1cccnc1)C(=O)N[C@@H](CC(C)C)C(=O)NCCNC(C)C [Example 9] (Ac-[d2Nal][dPhe(4-Cl)][d3Pal]S[NMeY][dK](Nicotinoyl)L-X4)', 'LH release from rat pituitary cells (Rattus norvegicus)', 'LHRH antagonist potency (pA2)', 10.21),
  ('CC(=O)N[C@H](Cc1ccc2ccccc2c1)C(=O)N[C@H](Cc1ccc(Cl)cc1)C(=O)N[C@H](Cc1cccnc1)C(=O)N[C@@H](CO)C(=O)N(C)[C@@H](Cc1ccc(O)cc1)C(=O)N[C@H](CCCCNC(=O)c1cccnc1)C(=O)N[C@@H](CC(C)C)C(=O)NCCCN1CCCC1=O [Example 33] (Ac-[d2Nal][dPhe(4-Cl)][d3Pal]S[NMeY][dK](Nicotinoyl)L-X3)', 'LH release from rat pituitary cells (Rattus norvegicus)', 'LHRH antagonist potency (pA2)', 8.30);

Q) Specify measured LHRH antagonist potency (pA2) for CNCCNC(=O)[C@H](CC(C)C)NC(=O)[C@@H](CCCCNC(=O)c1cccnc1)NC(=O)[C@H](Cc1ccc(O)cc1)N(C)C(=O)[C@H](CO)NC(=O)[C@@H](Cc1cccnc1)NC(=O)[C@@H](Cc1ccc(Cl)cc1)NC(=O)[C@@H](Cc1ccc2ccccc2c1)NC(C)=O [Example 19] (Ac-[d2Nal][dPhe(4-Cl)][d3Pal]S[NMeY][dK](Nicotinoyl)L-NHCH2CH2NHMe) .
A) 9.70

Q) Specify measured LHRH antagonist potency (pA2) for CC(=O)N[C@H](Cc1ccc2ccccc2c1)C(=O)N[C@H](Cc1ccc(Cl)cc1)C(=O)N[C@H](Cc1cccnc1)C(=O)N[C@@H](CO)C(=O)N(C)[C@@H](Cc1ccc(O)cc1)C(=O)N[C@H](CCCCNC(=O)c1cccnc1)C(=O)N[C@@H](CC(C)C)C(=O)NCCN [Example 2] (Ac-[d2Nal][dPhe(4-Cl)][d3Pal]S[NMeY][dK](Nicotinoyl)L-Ethylenediamine) .
A) 9.58
